target_desc: KAT-5 (Homo sapiens (Human), UniProt Q92993)
Sequence (Q92993 other isoform, or with tags, fused parts or gaps): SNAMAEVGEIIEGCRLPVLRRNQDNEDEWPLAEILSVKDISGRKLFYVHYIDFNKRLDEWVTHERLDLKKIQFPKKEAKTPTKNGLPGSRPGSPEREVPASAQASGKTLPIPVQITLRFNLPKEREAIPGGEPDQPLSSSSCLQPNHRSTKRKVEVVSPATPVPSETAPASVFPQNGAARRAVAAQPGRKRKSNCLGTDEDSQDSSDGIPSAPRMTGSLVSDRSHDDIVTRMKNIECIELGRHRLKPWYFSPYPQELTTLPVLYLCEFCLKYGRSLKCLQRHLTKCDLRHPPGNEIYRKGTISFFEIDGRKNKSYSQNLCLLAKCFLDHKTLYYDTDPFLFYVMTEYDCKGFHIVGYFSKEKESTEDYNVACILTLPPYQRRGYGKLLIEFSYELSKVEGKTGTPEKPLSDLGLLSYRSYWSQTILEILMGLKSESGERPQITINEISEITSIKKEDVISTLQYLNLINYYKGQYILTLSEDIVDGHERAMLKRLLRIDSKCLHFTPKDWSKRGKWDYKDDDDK
assay_comment: KAT-5 biochemical inhibition assay (SAMDI mass spectrometry)
IC50 values for the compounds below.

Check out these entries, answers already filled in.
compound	target_desc	IC50
Cn1cc(-c2cc(Cl)c(F)c(C(=O)NNS(=O)(=O)CC3CCCCC3)c2)cn1	KAT-5 (Homo sapiens (Human), UniProt Q92993)	< 10 µM
COCCn1cc(-c2cc(C)c(F)c(C(=O)NNS(=O)(=O)C3CCCCC3)c2)cn1	KAT-5 (Homo sapiens (Human), UniProt Q92993)	10 to 50 µM
CN(C(=O)C1CCC1)C1CCC(CS(=O)(=O)NNC(=O)c2cc(-c3cn(C)cn3)cc(Cl)c2F)CC1 (centres unmarked)	KAT-5 (Homo sapiens (Human), UniProt Q92993)	< 10 µM
CNC(=S)N1CC[C@@H](CS(=O)(=O)NNC(=O)c2cc(-c3cn(C)cn3)cc(Cl)c2F)C1	KAT-5 (Homo sapiens (Human), UniProt Q92993)	< 10 µM

Ask: I have this compound here, "Cn1cc(-c2cc(Cl)c(F)c(C(=O)NNS(=O)(=O)CC3CCOCC3)c2)cn1" , and I need its recorded IC50.
Result: 10 to 50 µM

Ask: I have this compound here, "Cn1cnc(-c2cc(Cl)c(F)c(C(=O)NNS(=O)(=O)c3cn(C)nn3)c2)c1" , and I need its recorded IC50.
Result: 10 to 50 µM

Ask: I have this compound here, "CN(C)C(=O)N(C)[C@H]1CC[C@H](CS(=O)(=O)NNC(=O)c2cc(-c3cn(C)cn3)cc(Cl)c2F)CC1" , and I need its recorded IC50.
Result: < 10 µM

Ask: I have this compound here, "CO[C@H]1CC[C@@H](CS(=O)(=O)NNC(=O)c2cc(-c3cn(C)cn3)cc(Cl)c2F)CC1" , and I need its recorded IC50.
Result: < 10 µM

Ask: I have this compound here, "Cn1cnc(-c2cc(Cl)c(F)c(C(=O)NNS(=O)(=O)C[C@H]3CC[C@H](NC(=O)Cc4cccnc4)CC3)c2)c1" , and I need its recorded IC50.
Result: < 10 µM

Ask: I have this compound here, "COc1ccc(CN(C)C(=O)N2CC[C@@H](CS(=O)(=O)NNC(=O)c3cc(-c4cn(C)cn4)cc(Cl)c3F)C2)cc1" , and I need its recorded IC50.
Result: < 10 µM

Ask: I have this compound here, "COCCn1cnc(-c2cc(C)c(F)c(C(=O)NNS(=O)(=O)C3CCCCC3)c2)c1" , and I need its recorded IC50.
Result: 10 to 50 µM
